- methodDescription: Water solubility test (HPLC)
- Assay type: physicochemical
- protocolConditions: double distilled water, thermodynamic from solid
metric: solubility (µg/mL)

I: C/C(=C\CO)CC/C=C(\C)CCC(O)C(C)C(=O)O (centres unmarked)
II: CC(C)=CCC/C(C)=C/CC/C(C)=C/CO [Farnesol, reference compound]
[Q] So which one has the bigger solubility here, I or II ? Reply with the label of the item you choose.
[A] I
(I: 780 µg/mL, II: 87.4 µg/mL)
